Test system: Acinetobacter baumannii
Assay: Antibacterial activity against Acinetobacter baumannii isolate CAN-ICU 63169 after 24 hrs by microtitre broth dilution method
Format: functional
Details: isolate CAN-ICU 63169, 24 h
Entries annotated with measured MIC
OUTCOME_MEASURE: MIC

COMPOUND | RESULT
COc1c(N2C[C@@H]3CCCN(CCCCCCCCCCCCOC[C@H]4O[C@H](O[C@@H]5[C@@H](O)[C@H](O[C@H]6O[C@H](CN)[C@@H](O)C[C@H]6N)[C@@H](N)C[C@H]5N)[C@H](O)[C@@H](N)[C@@H]4O)[C@@H]3C2)c(F)cc2c(=O)c(C(=O)O)cn(C3CC3)c12.Cl.Cl.Cl.Cl.Cl | > 128 µg/mL
O=C(O)c1cn(C2CC2)c2cc(N3CCNCC3)c(F)cc2c1=O [CIPROFLOXACIN] | 2 µg/mL
COc1c(N2C[C@@H]3CCCN(CCCCCCCCCCCCO[C@@H]4[C@@H](O[C@H]5O[C@H](CO)[C@@H](O)[C@H](N)[C@H]5O)[C@H](N)C[C@H](N)[C@H]4O[C@H]4O[C@H](CN)[C@@H](O)C[C@H]4N)[C@@H]3C2)c(F)cc2c(=O)c(C(=O)O)cn(C3CC3)c12.Cl.Cl.Cl.Cl.Cl | 16 µg/mL
COc1c(N2C[C@@H]3CCCN[C@@H]3C2)c(F)cc2c(=O)c(C(=O)O)cn(C3CC3)c12 [MOXIFLOXACIN] | 1 µg/mL
NC[C@H]1O[C@H](O[C@H]2[C@H](O)[C@@H](O[C@H]3O[C@H](CO)[C@@H](O)[C@H](N)[C@H]3O)[C@H](N)C[C@@H]2N)[C@H](N)C[C@@H]1O [TOBRAMYCIN] | 32 µg/mL
COc1c(N2C[C@@H]3CCCN(CCCCCCCCCCCCO[C@H]4[C@@H](O[C@@H]5[C@@H](O)[C@H](O[C@H]6O[C@H](CN)[C@@H](O)C[C@H]6N)[C@@H](N)C[C@H]5N)O[C@H](CO)[C@@H](O)[C@@H]4N)[C@@H]3C2)c(F)cc2c(=O)c(C(=O)O)cn(C3CC3)c12.Cl.Cl.Cl.Cl.Cl | 128 µg/mL

* * *

Experiment: Toxicity in Galleria mellonella upto 96 hrs

STRUCTURE_AS_SMILES | MTD at 96 h (mg/kg)
COc1c(N2C[C@@H]3CCCN(CCCCCCCCCCCCO[C@@H]4[C@@H](O[C@H]5O[C@H](CO)[C@@H](O)[C@H](N)[C@H]5O)[C@H](N)C[C@H](N)[C@H]4O[C@H]4O[C@H](CN)[C@@H](O)C[C@H]4N)[C@@H]3C2)c(F)cc2c(=O)c(C(=O)O)cn(C3CC3)c12.Cl.Cl.Cl.Cl.Cl | 600

* * *

Tested on: Pseudomonas aeruginosa
Test: Antibacterial activity against multidrug-resistant/tobramycin-susceptible Pseudomonas aeruginosa isolate 83182
Type: functional
OUTCOME_MEASURE: MIC (µg/mL)

MOLECULE | MEASUREMENT_QUALIFIER | RESULT
CC(C)(O/N=C(\C(=O)N[C@@H]1C(=O)N2C(C(=O)[O-])=C(C[n+]3ccccc3)CS[C@H]12)c1csc(N)n1)C(=O)O | > | 32
COc1c(N2C[C@@H]3CCCN(CCCCCCCCCCCCO[C@@H]4[C@@H](O[C@H]5O[C@H](CO)[C@@H](O)[C@H](N)[C@H]5O)[C@H](N)C[C@H](N)[C@H]4O[C@H]4O[C@H](CN)[C@@H](O)C[C@H]4N)[C@@H]3C2)c(F)cc2c(=O)c(C(=O)O)cn(C3CC3)c12.Cl.Cl.Cl.Cl.Cl | = | 8
O=C(O)c1cn(C2CC2)c2cc(N3CCNCC3)c(F)cc2c1=O | = | 4
C[C@@H](O)[C@H]1C(=O)N2C(C(=O)O)=C(S[C@@H]3CN[C@H](C(=O)N(C)C)C3)[C@H](C)[C@H]12 | = | 16
CO/N=C(\C(=O)N[C@@H]1C(=O)N2C(C(=O)[O-])=C(C[N+]3(C)CCCC3)CS[C@H]12)c1csc(N)n1 [CEFEPIME] | = | 16
